assay: Inhibition of NS5A in HCV genotype 2a JFH1 (L31) infected in human HuH7 replicon cells assessed as reduction in viral replication after 3 days by luciferase reporter gene assay
MEASUREMENT KIND: pEC50
The scale used: pEC50 is minus the common logarithm of the concentration in molar units.

COMPOUND	MEAS VALUE
COC(=O)N[C@H](C(=O)N1CCC[C@H]1c1ncc(-c2ccc3c(c2)COc2cc4c(ccc5nc([C@@H]6CCCN6C(=O)[C@@H](NC(=O)OC)C(C)C)[nH]c54)cc2-3)[nH]1)C(C)C	11.40
COC(=O)N[C@H](C(=O)N1CCC[C@H]1c1ncc(-c2cc3c4c(c2)OCc2cc(-c5cnc([C@@H]6CCCN6C(=O)[C@@H](NC(=O)OC)C(C)C)[nH]5)cc(c2-4)OC3)[nH]1)C(C)C	11.15
COC(=O)N[C@H](C(=O)N1CCC[C@H]1c1ncc(-c2cc3c4c(c2)COc2cc(-c5cnc([C@@H]6CCCN6C(=O)[C@@H](NC(=O)OC)C(C)C)[nH]5)cc(c2-4)CC3)[nH]1)C(C)C	10.80
COC(=O)N[C@H](C(=O)N1CCC[C@H]1c1ncc(-c2ccc3c(c2)COc2c-3ccc3c2ccc2nc([C@@H]4CCCN4C(=O)[C@@H](NC(=O)OC)C(C)C)[nH]c23)[nH]1)C(C)C	10.80
COC(=O)N[C@H](C(=O)N1CCC[C@H]1c1ncc(-c2cc3c4c(c2)OCc2cc(-c5cnc([C@@H]6CCCN6C(=O)[C@@H](NC(=O)OC)C6CCOCC6)[nH]5)cc(c2-4)OC3)[nH]1)C(C)C	10.85

Req: Endpoint output: pEC50 of "CC[C@H](C)[C@H](NC(=O)OC)C(=O)N1CCC[C@H]1c1ncc(-c2cc3c4c(c2)OCc2cc(-c5cnc([C@@H]6CCCN6C(=O)[C@@H](NC(=O)OC)[C@@H](C)CC)[nH]5)cc(c2-4)OC3)[nH]1" . Value?
Resp: 11.05

Req: Endpoint output: pEC50 of "COC(=O)N[C@H](C(=O)N1CCC[C@H]1c1ncc(-c2cc3c4c(c2)COc2cc(-c5cnc([C@@H]6CCCN6C(=O)[C@@H](NC(=O)OC)C(C)C)[nH]5)cc(c2-4)OC3)[nH]1)C(C)C" . Value?
Resp: 10.72

Req: Endpoint output: pEC50 of "COC(=O)N[C@H](C(=O)N1CCC[C@H]1c1ncc(-c2cc3c4c(c2)OCc2cc(-c5cnc([C@@H]6CCCN6C(=O)[C@H](NC(=O)OC)c6ccccc6)[nH]5)cc(c2-4)OC3)[nH]1)C1CCOCC1" . Value?
Resp: 10.66

---

experiment: Inhibition of NS5A in HCV genotype 4a ED43 infected in human HuH7 replicon cells assessed as reduction in viral replication after 3 days by luciferase reporter gene assay
MEASUREMENT KIND: pEC50
The scale used: pEC50 is minus the common logarithm of the concentration in molar units.

MOLECULE	pEC50
COC(=O)N[C@H](C(=O)N1CC2(CC2)C[C@H]1c1nc(-c2ccc3c(c2)C(F)(F)c2cc(-c4ccc5[nH]c([C@@H]6[C@H]7CC[C@H](C7)N6C(=O)[C@@H](NC(=O)OC)C(C)C)nc5c4)ccc2-3)c[nH]1)C(C)C [CHEBI:85089]	9.41

Req: Endpoint output: pEC50 of "COC[C@H]1C[C@@H](c2ncc(-c3ccc4c(c3)COc3cc5c(ccc6nc([C@@H]7CCCN7C(=O)[C@@H](NC(=O)OC)C(C)C)[nH]c65)cc3-4)[nH]2)N(C(=O)[C@H](NC(=O)OC)c2ccccc2)C1" . Value?
Resp: 11.15

---

experiment: Inhibition of NS5A L31M mutant in patient derived HCV genotype 2b MD2b-1 infected in human HuH7 replicon cells assessed as reduction in viral replication after 3 days by luciferase reporter gene assay
pEC50: −log10 of the molar value.
Response key: Fulfilled means pEC50 >= 10; Not fulfilled means pEC50 < 10.

Req: Does the compound "COC(=O)N[C@H](C(=O)N1CCC[C@H]1c1ncc(-c2cc3c4c(c2)OCc2cc(-c5cnc([C@@H]6CCCN6C(=O)[C@@H](NC(=O)OC)C6CCOCC6)[nH]5)cc(c2-4)OC3)[nH]1)C1CCOCC1" have recorded pEC50 that is 10 or more?
Resp: Not fulfilled

Req: Does the compound COC(=O)NC(C(=O)N1CCC[C@H]1c1ncc(-c2cc3c4c(c2)OCc2cc(-c5cnc([C@@H]6CCCN6C(=O)[C@@H](NC(=O)OC)C(C)C)[nH]5)cc(c2-4)OC3)[nH]1)c1cccnc1 (stereo not given in full) have recorded pEC50 that is 10 or more?
Resp: Not fulfilled

Req: Does the compound "COC(=O)N[C@H](C(=O)N1CCC[C@H]1c1ncc(-c2ccc3c(c2)COc2c-3ccc3c2ccc2nc([C@@H]4CCCN4C(=O)[C@@H](NC(=O)OC)C(C)C)[nH]c23)[nH]1)C(C)C" have recorded pEC50 that is 10 or more?
Resp: Not fulfilled

Req: Does the compound "COC(=O)N[C@H](C(=O)N1CCC[C@H]1c1ncc(-c2ccc3c(c2)COc2cc4c(ccc5nc([C@@H]6CCCN6C(=O)[C@H](NC(=O)OC)c6ccccc6)[nH]c54)cc2-3)[nH]1)C(C)C" have recorded pEC50 that is 10 or more?
Resp: Fulfilled

---

experiment: Inhibition of NS5A in HCV genotype 2a JFH1 (L31) infected in human HuH7 replicon cells assessed as reduction in viral replication after 3 days by luciferase reporter gene assay
pEC50: −log10 of the molar value.
Response key: condition met means pEC50 >= 10; condition not met means pEC50 < 10.

Here are 3 compounds together with their reported answers.
SMILES INPUT	CATEGORY LABEL
COC(=O)N[C@H](C(=O)N1CCC[C@H]1c1ncc(-c2cc3c4c(ccc5cc(-c6cnc([C@@H]7CCCN7C(=O)[C@@H](NC(=O)OC)C(C)C)[nH]6)cc(c54)OC3)c2)[nH]1)C(C)C	condition met
COC(=O)N[C@H](C(=O)N1CCC[C@H]1c1ncc(-c2cc3c4c(c2)OCc2cc(-c5cnc([C@@H]6CCCN6C(=O)[C@@H](NC(=O)OC)C6CCC6)[nH]5)cc(c2-4)OC3)[nH]1)C1CCC1	condition met
COC(=O)N[C@H](C(=O)N1CCC[C@H]1c1ncc(-c2ccc3c4ccc(-c5cnc([C@@H]6CCCN6C(=O)[C@@H](NC(=O)OC)C(C)C)[nH]5)cc4c4nccnc4c3c2)[nH]1)C(C)C	condition not met

Note: attention shifts to another entry.
Req: Does the compound "COC(=O)N[C@H](C(=O)N1CCC[C@H]1c1ncc(-c2cc3c4c(c2)OCc2cc(-c5cnc([C@@H]6CCCN6C(=O)[C@@H](NC(=O)OC)C6CCCC6)[nH]5)cc(c2-4)OC3)[nH]1)C1CCCC1" have recorded pEC50 that is 10 or more?
Resp: condition met

---

assay: Inhibition of NS5A in HCV genotype 1b Con1 infected in human HuH7 replicon cells assessed as reduction in viral replication after 3 days by luciferase reporter gene assay
EC50: recorded values
Value expressed in nM; do not type the unit.

Example results:
SMILES INPUT	UNIT	EC50
COC(=O)N[C@H](C(=O)N1CCC[C@H]1c1ncc(-c2cc3ccc4cc(-c5cnc([C@@H]6CCCN6C(=O)[C@@H](NC(=O)OC)C(C)C)[nH]5)cc5c(=O)c(c2)c3c45)[nH]1)C(C)C	nM	0.013
COC(=O)N[C@H](C(=O)N1CCC[C@H]1c1ncc(-c2ccc3c4ccc(-c5cnc([C@@H]6CCCN6C(=O)[C@@H](NC(=O)OC)C(C)C)[nH]5)cc4c4nccnc4c3c2)[nH]1)C(C)C	nM	0.018
CC[C@H](C)[C@H](NC(=O)OC)C(=O)N1CCC[C@H]1c1ncc(-c2cc3c4c(c2)OCc2cc(-c5cnc([C@@H]6CCCN6C(=O)[C@@H](NC(=O)OC)[C@@H](C)CC)[nH]5)cc(c2-4)OC3)[nH]1	nM	0.019
COC[C@H]1C[C@@H](c2nc3ccc4cc5c(cc4c3[nH]2)OCc2cc(-c3cnc([C@@H]4CC[C@H](C)N4C(=O)[C@@H](NC(=O)OC)C(C)C)[nH]3)ccc2-5)N(C(=O)[C@@H](NC(=O)OC)C(C)C)C1	nM	0.017
COC(=O)N[C@H](C(=O)N1CCC[C@H]1c1ncc(-c2ccc3c4ccc(-c5cnc([C@@H]6CCCN6C(=O)[C@@H](NC(=O)OC)C(C)C)[nH]5)cc4c4ccccc4c3c2)[nH]1)C(C)C	nM	0.005

Req: Endpoint output: EC50 of "COC(=O)N[C@H](C(=O)N1CCC[C@H]1c1ncc(-c2ccc3c(c2)COc2cc4c(ccc5nc([C@@H]6C[C@H](C)CN6C(=O)[C@@H](NC(=O)OC)C(C)C)[nH]c54)cc2-3)[nH]1)C(C)C" . Value?
Resp: 0.018

Req: Endpoint output: EC50 of "COC(=O)N[C@H](C(=O)N1CCC[C@H]1c1ncc(-c2ccc3c4ccc(-c5cnc([C@@H]6CCCN6C(=O)[C@@H](NC(=O)OC)C(C)C)[nH]5)cc4c4nc5ccccc5nc4c3c2)[nH]1)C(C)C" . Value?
Resp: 0.01

Req: Endpoint output: EC50 of "COC(=O)N[C@H](C(=O)N1CCC[C@H]1c1ncc(-c2cc3c4c(c2)OCc2cc(-c5cnc([C@@H]6CCCN6C(=O)[C@@H](NC(=O)OC)[C@@H](C)OC)[nH]5)cc(c2-4)OC3)[nH]1)C(C)C" . Value?
Resp: 0.079

Req: Endpoint output: EC50 of "COC[C@H]1C[C@@H](c2ncc(-c3cc4c5c(c3)OCc3cc(-c6cnc([C@@H]7CC[C@H](C)N7C(=O)[C@@H](NC(=O)OC)C(C)C)[nH]6)cc(c3-5)OC4)[nH]2)N(C(=O)[C@H](NC(=O)OC)c2ccccc2)C1" . Value?
Resp: 0.016

Req: Endpoint output: EC50 of "COC(=O)N[C@H](C(=O)N1CCC[C@H]1c1ncc(-c2cc3c4c(c2)OCc2cc(-c5cnc([C@@H]6CCCN6C(=O)[C@@H](NC(=O)OC)C6CCOCC6)[nH]5)cc(c2-4)OC3)[nH]1)C(C)C" . Value?
Resp: 0.172
